assay: NOVARTIS: Cytotoxicity against human hepatocellular carcinoma cell line (Huh7); type: toxicity, cell-based, Huh-7; settings: Huh7 cells (hepatocellular carcinoma cell line)
MEASURED ENDPOINT: CC50

Examples from the recorded data:
>  <COMPOUND>
CCN(CC)CCNc1ccnc2cc(Cl)ccc12

>  <CC50>
29.9 µM

$$$$
>  <COMPOUND>
c1cncc(CCNc2nccn3c(-c4cccc5ccccc45)cnc23)c1

>  <CC50>
> 10 µM

$$$$

For `Nc1ccc(-c2nc3cc(Oc4ccc(Oc5ccc6[nH]c(-c7ccc(N)cc7)nc6c5)cc4)ccc3[nH]2)cc1` , what is its reported CC50?
15 µM

Entry `Cc1cc(I)ccc1NC(=O)CNC(=O)OCc1ccccc1` has what CC50?
> 100 µM

Requested read-out: CC50. Entry: `COc1ccc(C=C2SC(=N)N(c3ccccc3OC)C2=O)cc1`
62.9 µM

# input compound: `O=C(Nc1ccc(-n2cccn2)cc1)C1CCN(C/C=C/c2ccccc2)CC1` ; wanted: its CC50
> 10 µM

# lookup: CC50 of `COc1ccc(C(OCCS(=O)(=O)CCO)(c2ccccc2)c2ccc(OC)cc2)cc1`
51.6 µM

Using the record for `COc1cc2nc(NCc3ccccn3)n3nc(-c4ccccc4)nc3c2cc1OC` , report its CC50.
> 100 µM

State the recorded CC50 for this entry: `N#CC(=Cc1cn(Cc2ccc(Cl)cc2Cl)c2ccccc12)c1nc2ccccc2[nH]1`
> 100 µM

====

The following molecules are listed with their measured CC50 values.
assay: NOVARTIS: Cytotoxicity against human hepatocellular carcinoma cell line (Huh7); format: toxicity, cell-based, Huh-7; settings: Huh7 cells (hepatocellular carcinoma cell line)

Which CC50 is reported for this molecule? `COc1ccc2nc(C)cc(Nc3ccc(Cl)cc3)c2c1`
18.3 µM

Dear colleague, I am looking for the recorded CC50 of the following molecule: `COCCCNC(=O)c1c(C)nc2scc(C)n12`
> 10 µM

Give its CC50 value. Item: `Cc1ccc2[nH]c(/C(C#N)=C/c3cn(Cc4ccc(Cl)cc4Cl)nc3-c3ccccc3)nc2c1`
> 10 µM

====

test system: Plasmodium falciparum; experiment: NOVARTIS: Inhibition of Plasmodium falciparum W2 (drug-resistant) proliferation in erythrocyte-based infection assay; assay type: functional, organism-based; conditions: Plasmodium falciparum, W2; read-out: EC50
compounds and their reported log10 of EC50
Hey, these are logged values: log10 of EC50, nM being the unit before logging.

What value of log10 of EC50 has been recorded for this entry: `CCN(CC)CCCNC(=S)N(CCN(C)C)Cc1cc2cc(C)cc(C)c2[nH]c1=O`
3.30

====

Catalogue of CC50 readings, one per entry.
test: NOVARTIS: Cytotoxicity against human hepatocellular carcinoma cell line (Huh7); type: toxicity, cell-based, Huh-7; details: Huh7 cells (hepatocellular carcinoma cell line)

Example entries begin here.
>  <COMPOUND>
COc1cc(CNNc2nc3cc(Cl)ccc3[nH]2)cc(OC)c1OC

>  <RESULT>
> 10 µM

$$$$
>  <COMPOUND>
Cc1cc(Nc2cc(Cl)cc(Cl)c2)n2nc(C)nc2n1

>  <RESULT>
> 100 µM

$$$$

# ---- query compound ----
Form field: reported CC50 of CCCOc1ccc(C2Sc3ccccc3N=C3C2=C(O)c2ccccc23)cc1OC (stereo not drawn)
> 100 µM
